Source of measurements: paper PMC4336329

// values below are reported hERG current change (%, negative = inhibition) at 10uM
- system-tested: human ether-à-go-go-related gene (hERG) potassium channel (human, UniProt Q12809);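 further: peak tail current of the secondary pulse compared with the same well before compound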
- Sequence (Q12809 whole entry, looked up): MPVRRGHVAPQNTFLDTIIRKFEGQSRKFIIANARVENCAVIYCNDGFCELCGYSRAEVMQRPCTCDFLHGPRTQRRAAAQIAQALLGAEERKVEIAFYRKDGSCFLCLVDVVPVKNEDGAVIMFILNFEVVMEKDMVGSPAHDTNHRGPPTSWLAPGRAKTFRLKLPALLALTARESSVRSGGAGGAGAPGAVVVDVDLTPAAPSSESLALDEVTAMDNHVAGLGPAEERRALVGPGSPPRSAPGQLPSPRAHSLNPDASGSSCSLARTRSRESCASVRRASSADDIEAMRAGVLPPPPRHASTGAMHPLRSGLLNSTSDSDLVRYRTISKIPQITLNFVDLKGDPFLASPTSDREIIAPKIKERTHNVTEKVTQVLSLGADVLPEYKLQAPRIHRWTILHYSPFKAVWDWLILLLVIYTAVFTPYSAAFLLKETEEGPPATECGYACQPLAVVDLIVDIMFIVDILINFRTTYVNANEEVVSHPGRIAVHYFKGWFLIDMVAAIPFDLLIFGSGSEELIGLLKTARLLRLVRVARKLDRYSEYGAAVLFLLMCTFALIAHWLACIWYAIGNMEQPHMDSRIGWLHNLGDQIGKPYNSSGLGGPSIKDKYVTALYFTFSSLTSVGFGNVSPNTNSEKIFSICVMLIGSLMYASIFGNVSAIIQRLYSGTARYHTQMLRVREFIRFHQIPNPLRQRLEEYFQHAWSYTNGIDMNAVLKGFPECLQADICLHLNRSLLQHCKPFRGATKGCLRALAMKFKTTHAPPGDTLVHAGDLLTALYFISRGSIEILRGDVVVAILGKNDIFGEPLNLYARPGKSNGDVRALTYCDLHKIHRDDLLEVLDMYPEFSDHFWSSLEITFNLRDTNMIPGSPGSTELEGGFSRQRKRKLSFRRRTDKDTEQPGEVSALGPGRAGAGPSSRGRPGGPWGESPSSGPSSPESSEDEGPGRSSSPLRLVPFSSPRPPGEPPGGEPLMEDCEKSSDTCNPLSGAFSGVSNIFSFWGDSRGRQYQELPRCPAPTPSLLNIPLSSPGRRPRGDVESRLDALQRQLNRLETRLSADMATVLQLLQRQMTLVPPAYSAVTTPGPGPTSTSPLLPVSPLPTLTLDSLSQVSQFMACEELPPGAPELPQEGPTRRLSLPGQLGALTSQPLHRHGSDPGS
- assay-name: primary screen, population patch clamp on CHO cells stably expressing hERG; higher = less effect of the substance
About 14,000 (4.5%) of roughly 310,000 compounds showed an effect of 50% or more. Effects have a minus sign here. Many of the other results were omitted from the sample, so strong results are more common in it than they were.
The figure you give is taken to be in %; do not add the unit.

Check out these entries, answers already filled in.
{"columns": ["molecule", "experimental-result"],
 "data": [
  ["O=C(Nc1cc(S(=O)(=O)N2CCCCC2)ccc1Cl)C1=NN(c2ccccc2)C(=O)CC1", 12.6],
  ["CCOc1cc(-c2nc3c(C)cccn3c2NCC2CCCO2)ccc1O.CNC.Cl (stereo not shown)", -43.9],
  ["COc1ccc(OCC(=O)N(Cc2ccc(C)o2)C2CCS(=O)(=O)C2)cc1 (stereo not shown)", -19.5],
  ["Cc1ccc(OCC(=O)N(Cc2ccco2)C2CCS(=O)(=O)C2)cc1C (stereo not shown)", -38.8],
  ["O=C(NCCCc1nc2ccccc2[nH]1)c1cccs1", -5.12],
  ["O=C(COc1ccc([N+](=O)[O-])cc1)N(C1CCCCC1)C1CCS(=O)(=O)C1 (stereo not shown)", -37],
  ["CCOC(=O)c1cnc(Nc2ccc(OCC)cc2)nc1C", 12.6],
  ["O=C(c1ccc(CSCc2ccccc2F)o1)N1CCN(c2ccc(N3CCOCC3)nn2)CC1", -66.7],
  ["Cc1cc(=O)[nH]c2nnc(-c3ccc(Br)cc3)n12", 5.99],
  ["O=C(COc1ccc(F)cc1)N(Cc1ccc(Cl)cc1)C1CCS(=O)(=O)C1 (stereo not shown)", -38.7]
]}

Reported hERG current change (%, negative = inhibition) at 10uM for CCC1Oc2ccc(C)cc2N(CC(=O)NCCC2=CCCCC2)C1=O (stereo not shown) was -16

Entry COc1ccc(-c2n[nH]c(=S)n2-c2ccc(C)cc2)cc1 , hERG current change (%, negative = inhibition) at 10uM reported as 8.3

Just so you know, measured hERG current change (%, negative = inhibition) at 10uM for O=C(c1ccccc1)N1CCN(c2ccc(N3CCOCC3)nn2)CC1 came out at -1.73

The reported value for COc1ccc(S(=O)(=O)N(C)CC(=O)N2CCC(C)CC2)cc1Cl in terms of hERG current change (%, negative = inhibition) at 10uM is -0.646

hERG current change (%, negative = inhibition) at 10uM recorded for this molecule, Nc1cc(=O)[nH]c(=O)n1-c1ccc(Cl)cc1 , is 15.2

Lookup result for CCOc1cc(/C=C(\C#N)C(=O)NCC2CCCO2)ccc1O (stereo not shown) ; measured hERG current change (%, negative = inhibition) at 10uM: -3.03

Entry CC(CS(=O)(=O)c1ccc2c(c1)NC(=O)CS2)C(=O)NCc1ccccc1Cl (stereo not shown) ; hERG current change (%, negative = inhibition) at 10uM = -0.823

Noted for COCC(C)OC(=O)c1c(N)n(CC(C)C)c2nc3ccccc3nc12 (stereo not shown) : its hERG current change (%, negative = inhibition) at 10uM reads -67.8

Recorded hERG current change (%, negative = inhibition) at 10uM (molecule Cc1ccn2c(NC3CCCC3)c(-c3ccncc3)nc2c1 ): -10.2

hERG current change (%, negative = inhibition) at 10uM for O=C1CCCC2=C1C(c1cccs1)n1nc(SCc3ccc(C(=O)O)cc3)nc1N2 (stereo not shown) is 2.81

The molecule CCOC(=O)c1c(C)nc(-c2ccccc2)nc1N showed hERG current change (%, negative = inhibition) at 10uM equal to 7.25

The recorded hERG current change (%, negative = inhibition) at 10uM for COc1cc(-c2nc3cccc(C)n3c2NCC2CCCO2)ccc1O (stereo not shown) is -51.4

Lab book: hERG current change (%, negative = inhibition) at 10uM of COCCCn1c(N)c(C(=O)OC(C)COC)c2nc3ccccc3nc21 (stereo not shown) noted as 0.737
